- test.target: human NAMPT (Homo sapiens)
- Sequence (P43490 whole entry): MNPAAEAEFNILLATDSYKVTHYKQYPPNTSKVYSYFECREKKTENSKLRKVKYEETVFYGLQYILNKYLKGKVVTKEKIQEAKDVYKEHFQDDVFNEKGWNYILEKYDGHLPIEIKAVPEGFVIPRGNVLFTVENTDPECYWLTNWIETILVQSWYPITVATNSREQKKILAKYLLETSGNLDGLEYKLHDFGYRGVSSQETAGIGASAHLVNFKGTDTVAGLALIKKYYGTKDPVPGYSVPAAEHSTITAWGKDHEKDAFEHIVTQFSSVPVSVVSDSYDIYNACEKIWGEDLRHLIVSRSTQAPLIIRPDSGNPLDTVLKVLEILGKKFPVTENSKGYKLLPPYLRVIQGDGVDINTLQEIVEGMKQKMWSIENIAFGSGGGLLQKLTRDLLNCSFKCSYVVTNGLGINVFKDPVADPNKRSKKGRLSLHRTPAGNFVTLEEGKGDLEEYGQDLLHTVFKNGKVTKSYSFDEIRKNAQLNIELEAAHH
- assay: Human recombinant enzyme assay (NMN fluorescence biochemical assay, activation of NAMPT)
- test.conditions: Table A; human recombinant NAMPT, NMN formation, 60 min
result.type: AC1.4 Human (µM)
Kindly provide the numeric value in µM only, without the unit symbol.

# return AC1.4 Human for COc1ccc(CNC(=O)NC2CC3(C2)CC(C(=O)NC2Cc4ccccc4C2O)C3)cc1 (centres unmarked) [Compound 94] , test system: human NAMPT (Homo sapiens)
11.0

# return AC1.4 Human for COc1ccc(CNC(=O)NC2CC3(C2)CC(C(=O)Nc2ccc4nncn4c2)C3)cc1 (centres unmarked) [Compound 89] , test system: human NAMPT (Homo sapiens)
10.3

---
# return AC1.4 Human for COc1ccc(CNC(=O)NC2CC3(C2)CN(C(=O)c2cccc(N4CCCC4)c2)C3)cc1 [Compound 179] , test system: human NAMPT (Homo sapiens)
0.8

# return AC1.4 Human for COc1ccc(CNC(=O)NC2CC3(C2)CC(C(=O)NCCc2ccccc2)C3)cc1 (centres unmarked) [Compound 69] , test system: human NAMPT (Homo sapiens)
4.7

# return AC1.4 Human for COc1ccc(CNC(=O)NC2CC3(C2)CN(C(=O)CCc2ccccc2Cl)C3)cc1 [Compound 135] , test system: human NAMPT (Homo sapiens)
3.7
